System: CAMK1G
experimentalContext: concentration: 1 μM, replicates: in singlicate; n = 1;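 note: KINOMEscan kinase panel screen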
Answer each item with its documented %Inh.
Response body: numeric value in %, unit text excluded.

Record summary for Cc1cn2c(=O)cc(N3CCOCC3)nc2n1Cc1cccc(Cl)c1Cl [GSK2334006] : reported %Inh = 30

Measured %Inh, O=C(NCCCN1CCOCC1)c1cccc(Nc2nccc(Nc3ccc(Oc4ccccc4)cc3)n2)c1 [GW663929] : 0

Sure, the documented %Inh for [2H]C([2H])(c1cccc(C(F)(F)F)c1C)n1ccn2c(=O)nc(N3CCOCC3)cc12 [GSK2336394] is 0

For reference, reported %Inh for NS(=O)(=O)CCc1cccc(Nc2nccc(-c3c(-c4cccc(NC(=O)c5c(F)cccc5F)c4)nn4ccccc34)n2)c1 [GSK336735] stands at 0

# molecule COC(=O)Nc1nc2cc(Oc3ccc(NC(=O)Nc4cc(F)ccc4F)cc3)ccc2[nH]1.Cl [GW701424] ; its %Inh = 7

Lab book: %Inh of COc1cc(Nc2nccc(N3CCC(NC(=O)c4cccc(NC(C)=O)c4)C3)n2)cc(OC)c1OC (centres unmarked) [GSK1379754] noted as 6

%Inh recorded for this molecule, Cc1cccc(-c2nc(Nc3ccc4ncsc4c3)c3ccccc3n2)n1 [GW867588] , is 0

Entry O=C1NC(=O)C(N2CCc3ccccc32)=C1c1cccc(Cl)c1 [SB-408010] ; %Inh = 0

%Inh for Cc1nnc(-c2ccc(C)c(-c3ccc(C(=O)Nc4ccc(NS(C)(=O)=O)cc4)cc3)c2)o1 [GW702865] is 0

Lookup result for C[C@@H](Oc1cc(-n2cnc3ccc(NC(=O)NC(C)(C)C)cc32)sc1C(N)=O)c1ccccc1Cl [GSK346294] ; measured %Inh: 2

get_value(item= CN(C(=O)c1ccc(-c2cc(-c3c[nH]nc3-c3ccccn3)ccn2)cc1)C1CCOCC1 [GW810083] , readout=%Inh) returns 0

Entry COc1ccc(COc2cc(-n3cnc4ccccc43)sc2C(N)=O)cc1 [GSK1024304] — recorded %Inh = 8

%Inh recorded for this molecule, Nc1nc(-c2ccc3c(N)n[nH]c3c2)cc(N2CCCC2)n1 [GSK2227430] , is 0

%Inh recorded for this molecule, CN1c2ccc(CNc3ccc(F)cc3)cc2-c2c(cnn2C)S1(=O)=O , is 0

Kindly note the recorded %Inh for COc1ccc(Nc2ncc(C#N)c(Nc3ccccc3C(N)=O)n2)cc1N1CCN(C)CC1.Cl [GSK1558669] , which is 83

Measured %Inh, COc1ccc(Nc2nccc(N3CCC(NC(=O)Nc4cc(C)ccc4C)C3)n2)cc1 (centres unmarked) [GSK1379741] : 0

So for CNc1ncnc2[nH]ncc12 [SKF-18355] , the logged %Inh turned out to be 0

====

Kindly supply the reported %Inh values for the records listed here.
Test system: PKMYT1
experimentalContext: concentration: 1 μM, replicates: in singlicate; n = 1
Report the value in % with no unit label.

# compound CN1c2ccc(NCc3ccc(F)cc3)cc2-c2c(cnn2C)S1(=O)=O ; its %Inh = 0

The compound listed as CC(C)(C)n1cnc2c(N)ncnc21 [SKF-97359] shows %Inh equal to 0

Data point: Cc1nnc(-c2ccc(C)c(-c3ccc(C(=O)Nc4ccc(NS(C)(=O)=O)cc4)cc3)c2)o1 [GW702865] ; %Inh = 0

Input Cc1c2ccc(N(C)c3ccnc(Nc4cccc(S(N)(=O)=O)c4)n3)cc2nn1Cc1ccccc1.Cl.Cl [GW787226] . Output %Inh: 0

Please fill in: %Inh reported for NS(=O)(=O)c1cccc(-c2ccc3ncc(N4CCOCC4)nc3c2)c1 [GSK1535721] = 1

The measured %Inh associated with COc1cc2c(cc1OC[C@@H](O)CO)ncc1c3ccc(C#N)cc3[nH]c21 reads 0

Measured %Inh of O=C(NOCC1CC1)c1ccc(F)c(F)c1Nc1ccc(I)cc1Cl : 0

So, Cc1cn2c(=O)cc(N3CCOCC3)nc2n1Cc1cccc(Cl)c1Cl [GSK2334006] ? Its %Inh was 12

Noted for c1ccc(-c2n[nH]cc2-c2ccnc3ccccc23)nc1 [GW271431] : its %Inh reads 3

For reference, reported %Inh for COc1ccc(Nc2ncc(C#N)c(Nc3ccccc3C(N)=O)n2)cc1N1CCN(C)CC1.Cl [GSK1558669] stands at 41

Summary for this compound, COc1ccc(Nc2nccc(N3CCC(NC(=O)Nc4cccc(C(C)=O)c4)C3)n2)cc1 (stereo not shown) [GSK1379731] : %Inh is 0

According to the records, this compound Cc1nnc(-c2ccc3ncc(-c4ccc(S(C)=O)cc4)n3c2)o1 (stereo not shown) displays %Inh of 3

Reported %Inh of Fc1ccc(-c2ncn(CCCN3CCOCC3)c2-c2ccccn2)cc1 [SB-211742] : 0

====

System: PIK3CD
experimentalContext: concentration: 1 μM, replicates: in singlicate; n = 1
Decision: %Inh beneath 7% gives True; %Inh meeting or exceeding 7% gives False.

Lab note: %Inh threshold 7%. Does this compound come in strictly under it? Cc1cn2c(=O)cc(N3CCOCC3)nc2n1Cc1cccc(Cl)c1Cl
False

Dear colleague, could you confirm whether %Inh of Nc1nc(-c2ccc3c(N)n[nH]c3c2)cc(N2CCCC2)n1 falls below 7%? Thanks.
True

Bench note: check whether Fc1ccc(-c2nn3c(OCC(F)(F)F)cccc3c2-c2ccncc2)cc1 shows %Inh below 7%
False

Answer whether the compound Cc1c2ccc(N(C)c3ccnc(Nc4cccc(S(N)(=O)=O)c4)n3)cc2nn1Cc1ccccc1.Cl.Cl has %Inh strictly less than 7%
True

Dear colleague, could you confirm whether %Inh of Cn1cc(-c2ccc3c(c2)CCN3C(=O)Cc2ccccc2Cl)c2c(N)ncnc21 falls below 7%? Thanks.
False

Below 7% on %Inh? Entry COc1ccc(COc2cc(-n3cnc4ccccc43)sc2C(N)=O)cc1
True

Hello, I'm reviewing records and need to know if %Inh of Cc1cccc(-c2nc(-c3ccc(S(C)(=O)=O)cc3)sc2-c2ccncc2)c1 is below 7%. Could you check?
False

====

System: IRAK4
experimentalContext: concentration: 1 μM, replicates: in singlicate; n = 1
Answer each item with its documented %Inh.
Write the value in % as a bare number.

Briefly, %Inh measured for CC(C)(C)n1cnc2c(N)ncnc21 [SKF-97359] : 0

%Inh reading for COc1ccc(COc2cc(-n3cnc4ccccc43)sc2C(N)=O)cc1 [GSK1024304] : 2

# %Inh (compound: O=C(Nc1cccc(-c2nn3ncccc3c2-c2ccnc(Nc3cccc(C(F)(F)F)c3)n2)c1)c1c(F)cccc1F [GSK299495] ) is 21

For record Cl.Oc1cccc(Nc2ccnc3cc(-c4ccncc4)ccc23)c1 [GW494601] the listed %Inh is 1

Form field %Inh, entry Cc1cccc(Cn2ccn3c(=O)cc(N4CCOCC4)nc23)c1 [GSK2297542] : 7

Record O=c1cc(N2CCOCC2)nc2n(Cc3cccc4ccccc34)ccn12 [GSK2333389] , field %Inh: 20

# compound COc1ccc(Nc2ncc(C#N)c(Nc3ccccc3C(N)=O)n2)cc1N1CCN(C)CC1.Cl [GSK1558669] ; its %Inh = 99.4

For O=c1cc(N2CCOCC2)nc2n(Cc3cccc(C(F)(F)F)c3)ccn12 [GSK2297543] the compound record lists %Inh as 0

Just so you know, measured %Inh for O=C(c1ccc(-c2cc(-c3c[nH]nc3-c3ccccn3)ccn2)cc1)N1CCOCC1 [GW812171] came out at 0

====

System: ULK2
experimentalContext: concentration: 1 μM, replicates: in singlicate; n = 1
endpoint: %Inh

# COc1ccc(Nc2nccc(N3CCC(NC(=O)Nc4cc(C)ccc4C)C3)n2)cc1 (stereo not drawn) [GSK1379741] with ULK2: %Inh is 0%

Noted %Inh for COc1ccc(COc2cc(-n3cnc4ccccc43)sc2C(N)=O)cc1 [GSK1024304] , tested on ULK2: 0%

# O=C1Cc2cc(Nc3nc(NCc4cccc(S(=O)(=O)C(F)(F)F)c4)ncc3C(F)(F)F)ccc2N1 with ULK2: %Inh is 26%

Assay ULK2, sample Fc1ccc(-c2ncn(CCCN3CCOCC3)c2-c2ccccn2)cc1 [SB-211742] , %Inh read: 0%

ULK2 data for O=C(NCCNc1ccnc(Nc2ccc(F)cc2)n1)c1cc2ccccc2s1 [GSK1379874] ; its %Inh: 0%

# %Inh measured on ULK2 for item O=C(c1ccc(-c2cc(-c3c[nH]nc3-c3ccccn3)ccn2)cc1)N1CCOCC1 [GW812171] = 38%

The value of %Inh recorded for Cc1ccc(NC(=O)c2ccnc(N3CCN(C)CC3)c2)cc1-c1ccc(C(=O)NCC2CC2)cc1 [GW775604] when tested on ULK2 reads 100%

The recorded %Inh with ULK2 for O=C(Nc1cccc(-c2nn3ncccc3c2-c2ccnc(Nc3cccc(C(F)(F)F)c3)n2)c1)c1c(F)cccc1F [GSK299495] was 0%

Simply: Cc1nnc(-c2ccc3ncc(-c4ccc(S(C)=O)cc4)n3c2)o1 (stereo not drawn) , ULK2, %Inh = 18%

Bench note, ULK2: CSc1ccc(-c2cc3ncnc(SCC(=O)O)c3s2)cc1 , %Inh reads 8%

Reported ULK2 %Inh for item Fc1ccc(-c2ncn(CCCN3CCOCC3)c2-c2cccnc2)cc1 [SB-211743] was 2%

Simply: Cn1ccc2ncnc(Oc3ccc(NC(=O)Nc4ccncc4)c(Cl)c3)c21 , ULK2, %Inh = 10%

Item: Nc1nccc(-c2c(-c3ccc(F)cc3)ncn2C2CCN(CC(F)(F)F)CC2)n1 [SB-236560] | System: ULK2 | %Inh: 30%

So the reported %Inh for CC(C)Oc1ccc2c(-c3ccnc(Nc4ccc(N5CCN(C)CC5)cc4)n3)cnn2n1 [GW696155] , on ULK2, turned out to be 99.8%

// %Inh (ULK2) for CC(C)(C)n1cnc2c(N)ncnc21 [SKF-97359] = 0%

Bench note, ULK2: O=C1NC(=O)C(N2CCc3ccccc32)=C1c1cccc(Cl)c1 [SB-408010] , %Inh reads 0%

The compound COc1cc2ncn(-c3cc(OCc4sccc4Cl)c(C(N)=O)s3)c2cc1OC [GSK448459] , when measured on ULK2, yielded %Inh of 0%

Form field, %Inh with ULK2, item NCC(NC(=O)c1cc(-c2cn[nH]c2)c(-c2ccnc3[nH]ccc23)s1)c1ccccc1.O=C(O)C(F)(F)F.O=C(O)C(F)(F)F (stereo not drawn) [GSK1325775] : 7%
